test.description: Inhibition of Kir2.1 (unknown origin)
property.measured: IC50

Exercise: Quick one: IC50 for C[C@]1(CN2Cc3nc(-c4ccc(F)cc4)sc3C2)Cn2cc([N+](=O)[O-])nc2O1 ?
Key: > 40 µM

Exercise: Which IC50 is listed for C[C@]1(CN2Cc3nc(-c4ccc(F)cc4)sc3C2)CN=C(N)O1 ?
Key: > 13.3 µM
